# measured_target: T1, Soluble heterodimeric CD3 protein (hCD3-epsilon/hCD3-delta) with a human Fc tag (hFcΔAdp/hFc) or a mouse Fc … (human, UniProt P07766 23-126; P04234 22-105)
# T1 construct: also called hCD3ε/δ; not shown: Fc tag: human (hFcΔAdp/hFc); which tag was used in Ta
# T1 sequence (P07766 23-126 limits assumed, stated change not applied, chain 1 of 2): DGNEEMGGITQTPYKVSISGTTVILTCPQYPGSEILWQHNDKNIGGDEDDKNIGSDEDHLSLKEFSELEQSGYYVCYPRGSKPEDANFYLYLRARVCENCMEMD
# T1 sequence (P04234 22-105 limits assumed, stated change not applied, chain 2 of 2): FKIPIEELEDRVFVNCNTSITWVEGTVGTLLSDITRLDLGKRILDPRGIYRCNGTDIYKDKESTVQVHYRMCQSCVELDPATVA
# experimental_protocol: SPR Biacore, 25 C, antibody-capture format
quantity_measured: T½ (min)
Field format: number, assumed min, no unit text.

Below are worked cases with known answers.
{"columns": ["binder", "uom", "T½"],
 "data": [
  ["H2M2707N (antibody, V domains shown, Hybridoma antibody, human variable regions, mouse IgG2 Fc) VH: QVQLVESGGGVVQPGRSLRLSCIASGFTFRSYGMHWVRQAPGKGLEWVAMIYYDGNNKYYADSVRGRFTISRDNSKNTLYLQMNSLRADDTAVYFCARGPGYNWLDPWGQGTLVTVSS VL: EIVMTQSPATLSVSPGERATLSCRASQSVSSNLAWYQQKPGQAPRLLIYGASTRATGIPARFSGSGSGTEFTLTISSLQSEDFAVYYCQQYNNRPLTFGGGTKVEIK", "min", 6],
  ["H2M2778N (antibody, V domains shown, Hybridoma antibody, human variable regions, mouse IgG2 Fc) VH: EVQLVESGGGLVQPGRSLRLSCAASGFTFDDYSMHWVRQAPGKGLEWVSGISWNSRSIDYADSVKGRFTISRDNAKNSLYLQMNSLRAEDTALYYCVKDNSGYGRYYYYGMDVWGQGTTVSVSS VL: KIVMTQSPATLSVSPGERATLSCRASQSVSGNLAWYQQKPGQAPRLLIYGASTRATSIPARFSGSGSGTEFTLTISSLQSEDFAVYFCQHYYNWPLTFGGGTKVEIR", "min", 61],
  ["H2M2710N (antibody, V domains shown, Hybridoma antibody, human variable regions, mouse IgG2 Fc) VH: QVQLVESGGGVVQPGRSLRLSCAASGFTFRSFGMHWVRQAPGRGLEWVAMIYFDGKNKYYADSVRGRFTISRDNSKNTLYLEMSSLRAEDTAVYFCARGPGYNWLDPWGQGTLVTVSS VL: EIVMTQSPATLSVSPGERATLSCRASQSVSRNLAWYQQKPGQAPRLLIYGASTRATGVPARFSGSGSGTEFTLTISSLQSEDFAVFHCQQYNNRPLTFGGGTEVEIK", "min", 15],
  ["H2M2774N (antibody, V domains shown, Hybridoma antibody, human variable regions, mouse IgG2 Fc) VH: QVQLVESGGGVVQPGRSLRLSCVASGFTFRSYGMHWVRQAPGKGLQWVAMIYYDGKNKYYADSVRGRFTISRDNSKNTLYLQMNSLRAEDTAMYFCARGPGYNWLDPWGQGTLVTVSS VL: EIVMTQSPATLSVSPGERATLSCRASQRISSNLAWYQQKPGQAPRLLIYGASTRATGSPARFSGSGSGTEFTLTISSLQSEDVAVYYCQQHNNWPLTFGGGTKVEIK", "min", 13],
  ["H2M3543N (antibody, V domains shown, Hybridoma antibody, human variable regions, mouse IgG2 Fc) VH: EVQLVESGGGLVQPGRSLRLSCAASGFTFDDYTMHWVRQAPGKGLEWVSDISWNSGSIGYADSVKGRFTVSRDNAKNSLYLQMNSLRGEDTALYYCAKDMSGYAHYGYYGMDVWGQGTTVTVSS VL: DIQMTQSPSSLSASVGDRVTITCRASQSIRNYLNWYQQKPGKVPKLLIYAASSLQSGVPSRFSGSGSGTDFTLTISSLQPEDFATYYCQQSYSNPPITFGQGTRLEIK", "min", 51],
  ["H2M2690N (antibody, V domains shown, Hybridoma antibody, human variable regions, mouse IgG2 Fc) VH: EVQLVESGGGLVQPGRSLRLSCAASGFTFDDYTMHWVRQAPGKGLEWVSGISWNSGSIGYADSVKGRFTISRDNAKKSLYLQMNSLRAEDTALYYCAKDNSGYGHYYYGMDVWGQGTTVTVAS VL: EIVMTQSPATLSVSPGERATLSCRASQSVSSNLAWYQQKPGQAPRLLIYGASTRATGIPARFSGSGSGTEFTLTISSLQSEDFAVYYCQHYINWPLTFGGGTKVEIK", "min", 57],
  ["H2M2885N (antibody, V domains shown, Hybridoma antibody, human variable regions, mouse IgG2 Fc) VH: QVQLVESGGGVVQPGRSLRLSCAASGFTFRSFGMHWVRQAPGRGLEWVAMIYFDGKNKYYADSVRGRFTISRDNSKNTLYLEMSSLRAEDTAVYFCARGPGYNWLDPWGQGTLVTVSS VL: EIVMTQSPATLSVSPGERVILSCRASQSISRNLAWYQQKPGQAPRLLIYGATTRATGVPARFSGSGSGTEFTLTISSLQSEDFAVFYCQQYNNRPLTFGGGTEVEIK", "min", 18],
  ["H2M2706N (antibody, V domains shown, Hybridoma antibody, human variable regions, mouse IgG2 Fc) VH: QVQLVESGGGVVQPGRSLRLSCAASGFTFRSYAMHWVRQAPGKGLEWVAMVYYDGNNQYYADSVRGRFTISRDNSKNTLYLQMNSLRADDTAVYFCARGPGYNWLDPWGQGTLVTVSS VL: EIVMTQSPATLSVSPGERATLSCRASQSVSRNLAWYQQKPGQAPRLLIYGASTRATGIPARFSGSGSGTDFTLTISSLQSEDFAVYYCQQYNNWPLTFGGGTKVVIK", "min", 3],
  ["H2M2775N (antibody, V domains shown, Hybridoma antibody, human variable regions, mouse IgG2 Fc) VH: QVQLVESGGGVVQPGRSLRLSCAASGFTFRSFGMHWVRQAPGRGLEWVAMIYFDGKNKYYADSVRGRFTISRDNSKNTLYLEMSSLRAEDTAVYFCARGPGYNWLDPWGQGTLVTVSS VL: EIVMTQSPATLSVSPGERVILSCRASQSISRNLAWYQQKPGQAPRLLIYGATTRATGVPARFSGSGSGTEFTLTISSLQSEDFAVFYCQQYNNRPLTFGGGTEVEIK", "min", 18]
]}

Input line: # input binder: H2M2777N (antibody, V domains shown, Hybridoma antibody, human variable regions, mouse IgG2 Fc) VH: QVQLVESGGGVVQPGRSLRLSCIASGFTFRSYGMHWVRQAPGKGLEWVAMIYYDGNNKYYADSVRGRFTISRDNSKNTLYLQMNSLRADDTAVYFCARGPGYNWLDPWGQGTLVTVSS VL: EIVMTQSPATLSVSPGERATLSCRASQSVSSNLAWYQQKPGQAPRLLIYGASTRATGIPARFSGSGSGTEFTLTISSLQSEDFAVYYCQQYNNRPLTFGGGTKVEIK ; wanted: its T½
Output line: 7
